target: Bacterial DNA-directed RNA polymerase (Bacteria) (UniProt P0A8V2+P0A7Z4+P0A8T7+P0A800); test: Inhibition of Escherichia coli DNA-dependent RNA polymerase at 20 ug/ml using Micrococcus luteus DNA as primer; format: protein-complex assay
Sequence (P0A7Z4 whole entry partner): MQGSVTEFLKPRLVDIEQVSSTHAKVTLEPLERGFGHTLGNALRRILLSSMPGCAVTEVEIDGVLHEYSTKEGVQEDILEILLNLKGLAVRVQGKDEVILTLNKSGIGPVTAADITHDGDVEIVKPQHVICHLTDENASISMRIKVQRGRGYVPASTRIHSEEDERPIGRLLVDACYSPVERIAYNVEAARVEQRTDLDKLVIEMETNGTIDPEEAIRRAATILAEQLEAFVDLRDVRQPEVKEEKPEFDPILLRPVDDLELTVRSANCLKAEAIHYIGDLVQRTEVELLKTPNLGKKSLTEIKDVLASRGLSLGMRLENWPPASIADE
Sequence (P0A800 2-91 partner limits assumed): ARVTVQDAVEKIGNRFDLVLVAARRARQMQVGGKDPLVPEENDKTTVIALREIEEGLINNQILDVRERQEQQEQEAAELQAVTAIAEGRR
Sequence (P0A8T7 whole entry partner): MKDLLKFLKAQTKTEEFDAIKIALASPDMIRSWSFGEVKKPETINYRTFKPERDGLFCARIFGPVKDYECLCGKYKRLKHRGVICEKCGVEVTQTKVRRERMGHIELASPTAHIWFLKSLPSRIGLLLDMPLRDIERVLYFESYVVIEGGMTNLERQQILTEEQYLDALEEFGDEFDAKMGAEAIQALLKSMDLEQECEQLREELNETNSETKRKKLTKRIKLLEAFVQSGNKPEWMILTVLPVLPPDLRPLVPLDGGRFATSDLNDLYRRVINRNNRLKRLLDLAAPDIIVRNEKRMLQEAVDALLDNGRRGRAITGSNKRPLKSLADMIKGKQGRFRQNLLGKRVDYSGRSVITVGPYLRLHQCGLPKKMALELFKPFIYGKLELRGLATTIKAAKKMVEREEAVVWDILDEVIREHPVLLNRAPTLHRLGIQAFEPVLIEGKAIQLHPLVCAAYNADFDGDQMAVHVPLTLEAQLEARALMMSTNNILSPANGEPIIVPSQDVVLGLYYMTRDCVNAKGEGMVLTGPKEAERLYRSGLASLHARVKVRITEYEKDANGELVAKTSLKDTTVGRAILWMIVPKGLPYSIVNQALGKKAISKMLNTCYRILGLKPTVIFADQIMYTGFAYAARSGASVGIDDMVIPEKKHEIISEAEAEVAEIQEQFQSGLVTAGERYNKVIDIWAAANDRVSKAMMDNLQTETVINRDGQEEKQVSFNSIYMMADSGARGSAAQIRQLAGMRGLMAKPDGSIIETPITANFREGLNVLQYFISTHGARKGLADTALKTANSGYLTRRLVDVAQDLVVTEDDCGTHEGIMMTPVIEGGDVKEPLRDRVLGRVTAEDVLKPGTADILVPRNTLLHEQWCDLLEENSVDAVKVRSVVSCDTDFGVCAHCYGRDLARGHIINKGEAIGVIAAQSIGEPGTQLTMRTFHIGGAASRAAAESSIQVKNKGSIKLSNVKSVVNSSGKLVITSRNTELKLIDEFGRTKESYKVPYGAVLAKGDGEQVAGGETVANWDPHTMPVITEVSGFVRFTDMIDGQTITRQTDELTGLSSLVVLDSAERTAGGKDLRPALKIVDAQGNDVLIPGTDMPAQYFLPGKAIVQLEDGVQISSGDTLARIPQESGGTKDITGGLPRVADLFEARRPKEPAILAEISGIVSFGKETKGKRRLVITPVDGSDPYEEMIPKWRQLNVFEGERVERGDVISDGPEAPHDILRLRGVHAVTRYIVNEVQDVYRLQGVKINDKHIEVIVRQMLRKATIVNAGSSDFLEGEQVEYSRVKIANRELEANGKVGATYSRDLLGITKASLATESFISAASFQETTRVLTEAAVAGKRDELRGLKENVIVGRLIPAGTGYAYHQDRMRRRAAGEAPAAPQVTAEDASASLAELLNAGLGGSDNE
Sequence (P0A8V2 whole entry): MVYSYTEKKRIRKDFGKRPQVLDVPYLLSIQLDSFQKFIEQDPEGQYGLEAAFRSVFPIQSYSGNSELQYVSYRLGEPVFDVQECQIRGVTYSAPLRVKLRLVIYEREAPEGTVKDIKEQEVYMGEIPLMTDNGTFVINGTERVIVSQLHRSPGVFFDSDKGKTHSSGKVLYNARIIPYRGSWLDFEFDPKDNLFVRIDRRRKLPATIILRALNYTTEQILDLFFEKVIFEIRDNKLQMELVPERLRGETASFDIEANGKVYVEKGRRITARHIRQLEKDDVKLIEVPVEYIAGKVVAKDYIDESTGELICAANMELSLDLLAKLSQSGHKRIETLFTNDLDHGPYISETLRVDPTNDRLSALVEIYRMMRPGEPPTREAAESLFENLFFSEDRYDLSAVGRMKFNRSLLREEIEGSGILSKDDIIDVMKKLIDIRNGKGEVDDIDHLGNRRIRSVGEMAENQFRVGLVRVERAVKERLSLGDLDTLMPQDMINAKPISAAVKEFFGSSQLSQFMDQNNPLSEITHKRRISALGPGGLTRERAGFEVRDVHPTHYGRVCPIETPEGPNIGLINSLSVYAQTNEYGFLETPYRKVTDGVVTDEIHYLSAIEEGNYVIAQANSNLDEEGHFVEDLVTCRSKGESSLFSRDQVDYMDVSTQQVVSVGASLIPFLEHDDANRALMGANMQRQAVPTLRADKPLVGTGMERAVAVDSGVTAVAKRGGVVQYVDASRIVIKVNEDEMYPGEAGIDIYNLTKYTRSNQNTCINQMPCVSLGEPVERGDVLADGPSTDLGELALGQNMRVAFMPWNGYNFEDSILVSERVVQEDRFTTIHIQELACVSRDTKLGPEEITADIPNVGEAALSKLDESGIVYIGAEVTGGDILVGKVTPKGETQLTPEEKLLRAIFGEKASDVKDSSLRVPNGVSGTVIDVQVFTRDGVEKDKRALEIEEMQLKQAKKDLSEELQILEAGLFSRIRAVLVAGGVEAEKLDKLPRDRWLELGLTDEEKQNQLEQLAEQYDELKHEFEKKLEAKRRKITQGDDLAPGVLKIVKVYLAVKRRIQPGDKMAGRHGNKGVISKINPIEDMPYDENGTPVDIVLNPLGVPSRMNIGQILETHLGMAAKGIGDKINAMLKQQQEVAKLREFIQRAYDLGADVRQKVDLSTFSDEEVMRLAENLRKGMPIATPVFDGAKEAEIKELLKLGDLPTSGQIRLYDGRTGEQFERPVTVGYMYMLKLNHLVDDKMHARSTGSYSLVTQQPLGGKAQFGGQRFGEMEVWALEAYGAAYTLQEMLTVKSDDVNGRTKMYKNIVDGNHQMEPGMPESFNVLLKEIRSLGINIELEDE
Numbered stars: 1 amine (or outer) side, 2 acyl side, 3 side chain; on linkers, the order of the positions; unused ones are H or OH. Bridge positions count the residues as written; N and C are the ends. Square brackets hold non-standard residues; d marks the D form. Peptide text beside a SMILES is read from it. I, II: the chains in the order shown. Actinocin(9to1) = Cc1c2oc3c(C)ccc(C(=O)[*:1])c3nc-2c(C(=O)[*:2])c(N)c1=O; NMeV = CN[C@H](C(=O)O)C(C)C; Sar = CNCC(=O)O
Measured Endpoint: inhibition (%)
Report the figure in % without appending any unit label.

Exercise: Name the recorded inhibition of the compound listed here: Cc1c2oc3c(C)ccc(C(=O)N[C@@H]4C(=O)N[C@H](C(C)C)C(=O)N5CCC[C@H]5C(=O)N(C)CC(=O)N(C)[C@@H](C(C)C)C(=O)O[C@@H]4C)c3nc-2c(C(=O)N[C@@H]2C(=O)N[C@H](C(C)C)C(=O)N3CCC[C@H]3C(=O)N(C)CC(=O)N(C)[C@@H](C(C)C)C(=O)O[C@@H]2C)c(N)c1=O [DACTINOMYCIN] (I: T[dV]P[Sar][NMeV] / II: T[dV]P[Sar][NMeV]; ester I:1-I:C, II:1-II:C; linker I:N-II:N via Actinocin(9to1))
Solution: 99
